meta.source: paper PMC3351444

- target.or.system: human CMKLR1 (Homo sapiens)
- Construct: host or cells: HEK293A (Invitrogen), stably expressing human Gα15
- Sequence (Q99788 1-373): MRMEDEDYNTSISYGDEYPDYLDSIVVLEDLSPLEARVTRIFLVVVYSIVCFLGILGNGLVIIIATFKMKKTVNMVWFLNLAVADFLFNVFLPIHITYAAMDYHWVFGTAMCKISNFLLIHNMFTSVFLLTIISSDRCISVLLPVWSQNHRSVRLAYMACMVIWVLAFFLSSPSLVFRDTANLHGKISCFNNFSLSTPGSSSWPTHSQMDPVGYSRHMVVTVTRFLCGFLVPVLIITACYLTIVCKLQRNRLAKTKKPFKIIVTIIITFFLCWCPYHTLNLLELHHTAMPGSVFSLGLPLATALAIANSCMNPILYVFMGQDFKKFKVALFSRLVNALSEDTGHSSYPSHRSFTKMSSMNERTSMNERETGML
- measurement.description: Ca2+ mobilization (CellLux imaging) agonist assay in HEK293A cells expressing CMKLR1 and Gα15
- Type: cell-based
- study.conditions: Ca2+ mobilization, CMKLR1; decimal comma
- Protocol: HEK293A cells (Invitrogen) expressing CMKLR1 and Gα15 were seeded at 5*10^4 cells/well in a poly-D-lysine coated 96-well black well/clear bottom plate (BD Falcon) and cultured overnight. From eighteen to twenty-four hours later, cells were loaded with FLUO4-AM (Invitrogen). […] Fluorescence data was generated in duplicate and experiments were repeated for at least three times. […] Signals were normalized to background fluorescence. […]
Square brackets hold non-standard residues; d marks the D form. Peptide text beside a SMILES is read from it.
metric: max response

Worked cases, max response given:
INSERT INTO assay_data (molecule, metric, observed) VALUES
  ('CC(C)C[C@H](N)C(=O)N[C@H](Cc1c[nH]c2ccccc12)C(=O)NCC(=O)NCC(=O)N1CCC[C@H]1C(=O)N[C@@H](Cc1ccc(O)cc1)C(=O)N[C@H](Cc1c[nH]c2ccccc12)C(=O)N[C@@H](Cc1ccc(O)cc1)C(=O)N[C@H](CO)C(=O)O [compound 128] (H-L[dW]GGPY[dW]Y[dS]-OH; N-terminus assumed)', 'max response', '1,45 DF/F0'),
  ('C[C@H](NC(=O)[C@@H](Cc1ccccc1)NC(=O)[C@H](CCC(N)=O)NC(=O)CNC(=O)[C@@H]1CCCN1C(=O)[C@H](Cc1ccccc1)NC(=O)[C@@H](N)Cc1ccc(O)cc1)C(=O)N[C@@H](Cc1c[nH]c2ccccc12)C(=O)N[C@@H](CO)C(N)=O [compound 13] (H-YFPGQ[dF]AWS-NH2; N-terminus assumed)', 'max response', '1,22 DF/F0'),
  ('CC(C)C[C@H](NC(=O)[C@@H](N)Cc1ccccc1)C(=O)N1CCC[C@H]1C(=O)NCC(=O)N[C@@H](CCC(N)=O)C(=O)NCC(=O)N[C@H](Cc1ccccc1)C(=O)N[C@@H](Cc1ccccc1)C(=O)N[C@@H](CO)C(=O)O [compound 61] (H-FLPGQG[dF]FS-OH; N-terminus assumed)', 'max response', '0,73 DF/F0');

Query string: Look up max response: CC[C@@H](C)[C@@H](NC(=O)[C@H](Cc1ccccc1)NC(=O)[C@H](CCC(N)=O)NC(=O)CNC(=O)[C@@H]1CCCN1C(=O)[C@H](Cc1ccccc1)NC(=O)[C@H](N)Cc1c[nH]c2ccccc12)C(=O)N[C@@H](Cc1ccccc1)C(=O)N[C@@H](CO)C(N)=O [compound 18] (H-[dW]FPGQF[dI]FS-NH2; N-terminus assumed)
Result string: 1,40 DF/F0
